Biological target: human TLR4 (human), O00206
Sequence (O00206 24-631): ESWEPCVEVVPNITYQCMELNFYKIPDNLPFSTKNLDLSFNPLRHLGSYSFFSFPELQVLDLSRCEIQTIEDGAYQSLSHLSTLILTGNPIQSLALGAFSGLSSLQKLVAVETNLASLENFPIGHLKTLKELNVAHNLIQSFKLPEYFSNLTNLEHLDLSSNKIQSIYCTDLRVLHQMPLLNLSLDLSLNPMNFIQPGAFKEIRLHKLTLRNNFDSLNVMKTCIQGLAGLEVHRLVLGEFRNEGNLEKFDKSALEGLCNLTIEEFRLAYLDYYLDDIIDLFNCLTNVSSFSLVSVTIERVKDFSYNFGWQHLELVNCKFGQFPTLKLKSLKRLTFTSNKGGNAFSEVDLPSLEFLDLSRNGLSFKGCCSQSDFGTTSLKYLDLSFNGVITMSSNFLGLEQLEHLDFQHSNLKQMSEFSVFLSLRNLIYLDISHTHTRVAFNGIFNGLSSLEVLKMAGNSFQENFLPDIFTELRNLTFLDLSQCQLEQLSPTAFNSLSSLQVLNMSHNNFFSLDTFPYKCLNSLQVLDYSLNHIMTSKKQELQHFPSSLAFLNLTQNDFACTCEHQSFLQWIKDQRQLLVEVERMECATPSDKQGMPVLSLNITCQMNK
Test: SPR; Biacore T200; TLR4 amine-coupled on CM5 (800 RU); GST-A-box (310-10,000 nM), GST-B-box (1 and 5 μM), A-box or GST injected at 30 μL/min for 60 s, 25 °C, dissociation 2 min; HBS-EP pH 7.4; 1:1 binding supposed; apparent KD
experimental_endpoint: pKd
pKd field: float, defined as -log10 of concentration (mol/L).

query: I have this binder here, Recombinant GST-A-box (domain or fragment, modifications not checked) PRGKMSSYAFFVQTCREEHKKKHPDASVNFSEFSKKCSERWKTMSAKEKGKFEDMAKADKARYEREMKTYI , and I need its recorded pKd.
result: 6.23
